- Tested on: SAS
- method summary: Cytotoxicity against human SAS cells assessed as growth inhibition
- Type: functional, cell-based
Lab note: anything with IC50 below 4 µM is marked 1 (yes); values at 4 µM or higher are marked 0 (no).

>  <test smiles>
COc1cc(C#C/C=C\C#Cc2ccccn2)cc(OC)c1OC

>  <tested system>
SAS

>  <group>
1 (yes)

$$$$
>  <test smiles>
COc1cc(C#C/C=C\C#Cc2cc(C(F)(F)F)ccc2N)cc(OC)c1OC

>  <tested system>
SAS

>  <group>
0 (no)

$$$$
>  <test smiles>
COc1ccc(C#C/C=C\C#Cc2cc(OC)c(OC)c(OC)c2)c(N)c1

>  <tested system>
SAS

>  <group>
0 (no)

$$$$
>  <test smiles>
COc1cc2c(c(OC)c1OC)-c1ccc(OC)c(=O)cc1[C@@H](NC(C)=O)CC2

>  <tested system>
SAS

>  <group>
1 (yes)

$$$$
>  <test smiles>
COc1ccc(C#C/C=C\C#Cc2cc(OC)c(OC)c(OC)c2)c([N+](=O)[O-])c1

>  <tested system>
SAS

>  <group>
1 (yes)

$$$$

###

- Tested on: HeLa
- method summary: Cytotoxicity against human HeLa cells assessed as growth inhibition
- Format: functional, cell-based
pIC50: −log10 of the molar value.
Outcome: true (1) for pIC50 of at least 6; false (0) for anything lower.

>  <test smiles>
COc1ccccc1C#C/C=C\C#Cc1cc(OC)c(OC)c(OC)c1

>  <group>
true (1)

$$$$
>  <test smiles>
Nc1ccccc1C#C/C=C\C#Cc1ccccc1C(F)(F)F

>  <group>
false (0)

$$$$
>  <test smiles>
COc1ccc(C#C/C=C\C#Cc2cc(OC)c(OC)c(OC)c2)c(OC)c1

>  <group>
false (0)

$$$$
>  <test smiles>
COc1cc(C#C/C=C\C#Cc2ccccc2N)cc(OC)c1OC

>  <group>
true (1)

$$$$
>  <test smiles>
COc1cc(C#C/C=C\C#Cc2ccccc2SC)cc(OC)c1OC

>  <group>
false (0)

$$$$

###

- Test system: HeLa
- method summary: Cytotoxicity against human HeLa cells assessed as growth inhibition
- Format: functional, cell-based
pIC50: −log10 of the molar value.
Entry flag: met if pIC50 reaches 6; not met if it does not.

>  <test smiles>
COc1cc(C#C/C=C\C#Cc2ccccn2)cc(OC)c1OC

>  <group>
met

$$$$
>  <test smiles>
COc1ccc(C#C/C=C\C#Cc2cc(OC)c(OC)c(OC)c2)c(N)c1

>  <group>
not met

$$$$
>  <test smiles>
COc1ccc(C#C/C=C\C#Cc2cc(OC)c(OC)c(OC)c2)c([N+](=O)[O-])c1

>  <group>
not met

$$$$
>  <test smiles>
COc1cc(C#C/C=C\C#Cc2ccccc2[N+](=O)[O-])cc(OC)c1OC

>  <group>
not met

$$$$
>  <test smiles>
COc1cc(C#C/C=C\C#Cc2cc(C(F)(F)F)ccc2N)cc(OC)c1OC

>  <group>
not met

$$$$
